The measured values listed here are drawn from patent US8722622B2.

+(1) H2O: recorded values
Assay: Stability of linkers L1-L4 conjugated to FGF21 (LC-MS)
Format: physicochemical
Settings: +4° C., 24 hrs
Write the value in % as a bare number.

Solved entries (count: 2):
- molecule: "L3-FGF21ΔH-A129C: Linker-3 conjugated to FGF21ΔH-A129C protein (Table 4; Table 5 row L3) (conjugate, UniProt Q9NSA1 29-209, looked up, variant H1* A129C, Linker-3 attached) Fibroblast growth factor 21: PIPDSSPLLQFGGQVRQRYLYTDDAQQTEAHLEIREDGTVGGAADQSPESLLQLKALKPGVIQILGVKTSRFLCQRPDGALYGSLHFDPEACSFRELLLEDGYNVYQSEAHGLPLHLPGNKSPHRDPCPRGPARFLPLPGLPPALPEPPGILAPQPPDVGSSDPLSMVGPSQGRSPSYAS"
  value_unit: "%"
  +(1) H2O: 27
- molecule: "L2-FGF21ΔH-A129C: Linker-2 conjugated to FGF21ΔH-A129C protein (Table 4; Table 5 row L2) (conjugate, UniProt Q9NSA1 29-209, looked up, variant H1* A129C, Linker-2 attached) Fibroblast growth factor 21: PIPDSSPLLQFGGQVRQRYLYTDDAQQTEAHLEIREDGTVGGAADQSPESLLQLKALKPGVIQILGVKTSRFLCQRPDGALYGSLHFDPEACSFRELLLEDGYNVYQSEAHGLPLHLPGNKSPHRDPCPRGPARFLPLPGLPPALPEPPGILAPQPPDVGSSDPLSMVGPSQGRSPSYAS"
  value_unit: "%"
  +(1) H2O: 26

API: the following record is the query input.
Incoming: Can you share its +(1) H2O? I mean this molecule: L1-FGF21ΔH-A129C: Linker-1 conjugated to FGF21ΔH-A129C protein (Table 4; Table 5 row L1) (conjugate, UniProt Q9NSA1 29-209, looked up, variant H1* A129C, Linker-1 attached) Fibroblast growth factor 21: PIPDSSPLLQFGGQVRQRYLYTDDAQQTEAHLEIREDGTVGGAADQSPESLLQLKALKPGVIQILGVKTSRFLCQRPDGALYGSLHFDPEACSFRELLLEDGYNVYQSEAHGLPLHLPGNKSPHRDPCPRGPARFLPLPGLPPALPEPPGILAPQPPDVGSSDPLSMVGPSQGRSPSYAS
Outgoing: 34
